biological target: KRAS G12D and SOS1 proteins (Homo sapiens); assay: KRAS-G12D/SOS1 binding assay (HTRF); conditions: Tag1-SOS1 / Tag2-KRAS G12D, 10 μM GTP
Sequence (Q07889 whole entry, stated change not applied): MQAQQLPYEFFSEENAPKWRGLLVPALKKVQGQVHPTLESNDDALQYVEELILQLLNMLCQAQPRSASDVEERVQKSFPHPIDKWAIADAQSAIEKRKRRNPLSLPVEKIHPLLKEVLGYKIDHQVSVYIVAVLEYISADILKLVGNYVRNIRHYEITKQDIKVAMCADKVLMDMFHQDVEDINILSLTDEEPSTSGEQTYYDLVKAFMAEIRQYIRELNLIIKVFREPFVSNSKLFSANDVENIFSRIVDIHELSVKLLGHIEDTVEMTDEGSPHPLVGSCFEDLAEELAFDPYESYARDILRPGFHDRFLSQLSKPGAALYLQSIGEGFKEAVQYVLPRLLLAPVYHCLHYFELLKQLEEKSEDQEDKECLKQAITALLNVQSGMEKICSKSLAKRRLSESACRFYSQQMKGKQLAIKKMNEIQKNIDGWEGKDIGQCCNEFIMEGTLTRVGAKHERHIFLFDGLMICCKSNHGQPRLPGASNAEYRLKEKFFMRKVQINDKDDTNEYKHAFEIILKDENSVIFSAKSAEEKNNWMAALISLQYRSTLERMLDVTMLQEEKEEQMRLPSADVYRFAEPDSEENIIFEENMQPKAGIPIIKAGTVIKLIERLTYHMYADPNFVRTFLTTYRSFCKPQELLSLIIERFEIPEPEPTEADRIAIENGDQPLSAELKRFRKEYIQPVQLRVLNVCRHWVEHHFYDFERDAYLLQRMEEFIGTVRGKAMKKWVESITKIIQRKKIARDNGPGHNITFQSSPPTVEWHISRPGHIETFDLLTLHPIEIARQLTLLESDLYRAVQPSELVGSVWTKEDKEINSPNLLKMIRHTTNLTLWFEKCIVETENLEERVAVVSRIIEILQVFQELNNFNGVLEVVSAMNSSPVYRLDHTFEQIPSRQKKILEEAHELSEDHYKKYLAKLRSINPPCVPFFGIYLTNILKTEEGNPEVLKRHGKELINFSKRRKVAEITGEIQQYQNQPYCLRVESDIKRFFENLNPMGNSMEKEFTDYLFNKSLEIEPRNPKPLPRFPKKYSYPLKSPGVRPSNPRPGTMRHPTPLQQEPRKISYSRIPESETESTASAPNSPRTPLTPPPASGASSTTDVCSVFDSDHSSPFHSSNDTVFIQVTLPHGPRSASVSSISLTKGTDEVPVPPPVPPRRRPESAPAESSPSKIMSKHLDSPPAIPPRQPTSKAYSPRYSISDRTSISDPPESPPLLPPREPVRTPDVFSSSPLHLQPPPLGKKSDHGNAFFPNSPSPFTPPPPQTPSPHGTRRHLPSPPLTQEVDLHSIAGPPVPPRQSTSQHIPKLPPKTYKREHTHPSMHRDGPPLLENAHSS
measured_quantity: IC50

1. COc1cc2c(cc1C1CCOCC1)c(N[C@H](C)c1cccc(C(F)F)c1F)nc1ccnn12 [Example 47]: 500 to 5000 nM
2. Cc1nc(N[C@H](C)c2cccc(C(F)(F)CO)c2)c2cc(-c3ccc(=O)n(C)c3)c3nn(C(F)(F)F)cc3c2n1 [Example 34]: 100 to 500 nM
3. Cc1nc(N[C@H](C)c2cccc3c2CCC3(F)F)c2cc(N3CCOCC3)c3nncn3c2n1 [Example 23]: < 100 nM
4. Cc1nc(N[C@H](C)c2cc(N)cc(C(F)(F)F)c2)c2cc(O[C@H]3CCOC3)c3nncn3c2n1 [Example 18]: < 100 nM
